Where these numbers come from: paper PMC11478287

This section presents molecules with their documented IC50 at 72 h values.
# EXPERIMENT_DESCRIPTION: HepG2 cytotoxicity screening (CellTiter-Glo)
# Format: cell-based
# CONDITION_SET: human, HepG2 cells; 50% decrease in viable cells after 72 h
API: value field is a number in µM; no unit string.

Sample answers from the record:
> print(dat)
                                   molecule  value.observed
1      COc1cc(C(=O)/C=C/c2cccnc2)cc(OC)c1OC               2
2            O=C(/C=C/c1cccnc1)c1ccc(Cl)cc1              11
3           O=C(/C=C/c1ccc(Cl)cc1)c1ccccc1O              25
4        O=C(/C=C/c1cccnc1)c1ccc(Cl)c(Cl)c1             2.5
5  Oc1ccccc1C1=NNC(c2ccc(Cl)cc2)C1 (centres unmarked)            19.5

// IC50 at 72 h lookup, molecule = COc1cccc(C(=O)/C=C/c2ccc(Br)cc2)c1 , result: 14

// IC50 at 72 h lookup, molecule = COc1ccccc1C(=O)/C=C/c1ccc(Br)cc1 , result: 13
